EC50 values for the molecules below.
# Study system: THRα (Homo sapiens)
# Construct: GST
# Sequence (P10827 1-410 isoform P10827-2): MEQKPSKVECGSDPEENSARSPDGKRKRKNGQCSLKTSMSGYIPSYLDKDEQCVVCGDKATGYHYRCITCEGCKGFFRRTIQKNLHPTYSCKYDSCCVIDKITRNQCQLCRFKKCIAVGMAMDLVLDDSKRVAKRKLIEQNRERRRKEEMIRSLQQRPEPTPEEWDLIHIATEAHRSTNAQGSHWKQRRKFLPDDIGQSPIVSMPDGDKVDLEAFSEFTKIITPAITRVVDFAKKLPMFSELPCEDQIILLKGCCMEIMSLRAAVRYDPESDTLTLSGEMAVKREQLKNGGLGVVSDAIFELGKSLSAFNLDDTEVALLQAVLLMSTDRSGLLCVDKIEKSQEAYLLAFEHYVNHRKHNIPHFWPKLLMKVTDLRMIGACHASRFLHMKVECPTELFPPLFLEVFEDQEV
# Sequence (P19793 225-462 partner limits assumed): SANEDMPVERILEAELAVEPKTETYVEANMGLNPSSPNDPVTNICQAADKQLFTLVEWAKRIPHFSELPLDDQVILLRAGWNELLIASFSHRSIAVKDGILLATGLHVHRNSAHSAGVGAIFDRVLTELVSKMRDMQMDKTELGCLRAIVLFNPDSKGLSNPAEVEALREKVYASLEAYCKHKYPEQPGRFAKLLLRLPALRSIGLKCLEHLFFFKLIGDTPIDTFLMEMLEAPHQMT
# Sequence (Q15596 679-703 partner limits assumed): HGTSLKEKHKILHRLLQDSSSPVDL
# Method summary: THRα agonist activity, fluorescence ratio 665 nm/615 nm with EE-RxRα and biotin-GRIP
# Setup conditions: incubated overnight at 4° C.
Test readout: EC50 (µM)

line_notation=CC(C)c1cc(Oc2ccc(-n3nc(C#N)c(=O)[nH]c3=O)cc2Br)n[nH]c1=O test_readout=EC50 inequality_operator== quantitative_readout=2.55
line_notation=Cc1c(Oc2ccc(-n3nc(C#N)c(=O)[nH]c3=O)cc2Cl)n[nH]c(=O)c1C test_readout=EC50 inequality_operator== quantitative_readout=3.29
line_notation=N#Cc1nn(-c2ccc(Oc3cc(C4CCCC4)c(=O)[nH]n3)c(F)c2)c(=O)[nH]c1=O test_readout=EC50 inequality_operator== quantitative_readout=18.5
line_notation=CC(C)c1cc(=O)[nH]nc1Oc1cc(Cl)c(-n2nc(C#N)c(=O)[nH]c2=O)cc1Cl test_readout=EC50 inequality_operator=> quantitative_readout=60
line_notation=CC(C)(C)c1cc(Oc2c(Cl)cc(-c3nn[nH]n3)cc2Cl)n[nH]c1=O test_readout=EC50 inequality_operator== quantitative_readout=2.59
line_notation=Cc1c(Oc2c(Cl)cc(-n3nc(C#N)c(=O)[nH]c3=O)cc2Cl)n[nH]c(=O)c1C test_readout=EC50 inequality_operator== quantitative_readout=0.631
line_notation=COc1cc(-n2nc(C#N)c(=O)[nH]c2=O)ccc1Oc1cc(CC(C)(C)C)c(=O)[nH]n1 test_readout=EC50 inequality_operator== quantitative_readout=19.9
line_notation=N#Cc1nn(-c2ccc(Oc3cc(CC4CCCC4)c(=O)[nH]n3)c(F)c2)c(=O)[nH]c1=O test_readout=EC50 inequality_operator== quantitative_readout=10
line_notation=N#Cc1nn(-c2cc(Cl)c(Oc3n[nH]c(=O)cc3C3CCCC3)c(Cl)c2)c(=O)[nH]c1=O test_readout=EC50 inequality_operator== quantitative_readout=4.66
line_notation=N#Cc1nn(-c2cc(Cl)c(Oc3cc(CC4CCCC4)c(=O)[nH]n3)c(Cl)c2)c(=O)[nH]c1=O test_readout=EC50 inequality_operator== quantitative_readout=2.75
line_notation=N#Cc1nn(-c2ccc(Oc3n[nH]c(=O)cc3C3CCCC3)c(Cl)c2)c(=O)[nH]c1=O test_readout=EC50 inequality_operator== quantitative_readout=3.22
line_notation=N#Cc1nn(-c2cc(Cl)c(Oc3cc(C4CCCC4)c(=O)[nH]n3)cc2Cl)c(=O)[nH]c1=O test_readout=EC50 inequality_operator== quantitative_readout=0.014
line_notation=CC(C)c1cc(Oc2ccc(-n3nc(C#N)c(=O)[nH]c3=O)cc2F)n[nH]c1=O test_readout=EC50 inequality_operator== quantitative_readout=0.014
line_notation=CC(C)(C)c1cc(Oc2c(Cl)cc(-c3c[nH]c(=O)c(O)c3)cc2Cl)n[nH]c1=O test_readout=EC50 inequality_operator== quantitative_readout=3.66
line_notation=COc1cc(-n2nc(C#N)c(=O)[nH]c2=O)ccc1Oc1cc(CC2CCCC2)c(=O)[nH]n1 test_readout=EC50 inequality_operator== quantitative_readout=8.68
line_notation=CC(C)c1cc(Oc2c(Cl)cc(-c3nn[nH]n3)cc2Cl)n[nH]c1=O test_readout=EC50 inequality_operator== quantitative_readout=3.32
